Hey, just so you know, these numbers are from patent US20240368267A1.

molecular target: T1, human IL-6 (human, UniProt P05231 30-212); assay: SPR (Biacore T200), antibody from cell supernatant captured on Protein A, IL-6 flowed over, 37 C
T1 construct: also called interleukin-6
T1 sequence (P05231 30-212 limits assumed): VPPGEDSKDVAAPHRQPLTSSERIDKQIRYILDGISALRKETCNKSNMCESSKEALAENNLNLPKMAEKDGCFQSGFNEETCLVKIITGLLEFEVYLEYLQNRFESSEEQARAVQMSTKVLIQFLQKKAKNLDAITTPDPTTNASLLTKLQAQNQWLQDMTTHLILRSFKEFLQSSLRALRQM
Some binders, each annotated with its measured kon.
Give just the number in M⁻¹ s⁻¹; leave the unit off.

Recorded results for 2 binders are shown here.
anti-IL-6 antibody, heavy chain I51Y, G66D / light chain WT (antibody, human IgG1, V domains shown, Derived as m2; Engineered human IgG1) VH: EVQLVESGGGLVQPGGSLRLSCAASGFTFSPFAMSWVRQAPGKGLEWVAKYSPGGSWTYYSDTVTDRFTFSLDTSKSTAYLQMNSLRAEDTAVYYCARQLWGYYALDIWGQGTLVTVSS VL: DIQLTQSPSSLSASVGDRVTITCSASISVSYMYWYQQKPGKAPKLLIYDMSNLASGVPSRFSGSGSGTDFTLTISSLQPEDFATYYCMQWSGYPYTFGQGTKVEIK :: 1.48e+06
anti-IL-6 antibody, heavy chain I51D, G66D / light chain WT (antibody, human IgG1, V domains shown, Derived as m2; Engineered human IgG1) VH: EVQLVESGGGLVQPGGSLRLSCAASGFTFSPFAMSWVRQAPGKGLEWVAKDSPGGSWTYYSDTVTDRFTFSLDTSKSTAYLQMNSLRAEDTAVYYCARQLWGYYALDIWGQGTLVTVSS VL: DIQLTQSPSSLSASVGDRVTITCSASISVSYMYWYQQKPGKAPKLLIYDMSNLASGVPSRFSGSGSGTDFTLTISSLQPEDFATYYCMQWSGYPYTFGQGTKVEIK :: 991000

Shifting focus to the binder that follows.
Inquiry: Form field: reported kon of anti-IL-6 antibody, heavy chain S35K, G66D / light chain WT (antibody, human IgG1, V domains shown, Derived as m2; Engineered human IgG1) VH: EVQLVESGGGLVQPGGSLRLSCAASGFTFSPFAMKWVRQAPGKGLEWVAKISPGGSWTYYSDTVTDRFTFSLDTSKSTAYLQMNSLRAEDTAVYYCARQLWGYYALDIWGQGTLVTVSS VL: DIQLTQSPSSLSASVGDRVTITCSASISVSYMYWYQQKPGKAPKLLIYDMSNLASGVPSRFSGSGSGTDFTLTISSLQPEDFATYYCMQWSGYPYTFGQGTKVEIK
Reply text: 1.7e+06
